Each item that follows carries a reported apparent KD of K4 kissing-loop reporter.
test system: K4 kissing-loop RNA reporter; experiment: apparent KD of K4 kissing-loop reporter; higher = weaker reporter binding; conditions: Eterna round: R107; input ligand: tryptophan 2.4 mM
Units required after the number.

Recorded apparent KD of K4 kissing-loop reporter, per entry:
- Seq string: "UUUUUAUAAGAGGAUACCAGUACAAAUAAAGUACAUUAAUAGUAGAGUGAUGUUCUAAAGUACCCUUGGCAGCUUAGAGUAAGUU [ExTheophylB.C]"
  apparent KD of K4 kissing-loop reporter: "115 nM"
- Seq string: "UGCCGCAAGGCGAGCGCUCCCACUCCGGAAGGAGCGCCCGCAAGGGCAGGUAGGUCGCCGGAGUGAUGUUCCGGUGGAGGGCUCG [#2 Exclusion - Arginine A Attempt #25 (Inspired by Omei)]"
  apparent KD of K4 kissing-loop reporter: "157 nM"
- Seq string: "UAGUCCUAGUGAUGGUUAUCACGUGGUGGGCGAGGACCGGUACGGCCGCCACUCGACUAUGCAGUGAUGUUGCAAUCCGGACAAU [Exclusion - Tryptophan A (Freestyle 16)]"
  apparent KD of K4 kissing-loop reporter: "116 nM"
- Seq string: "CAACGAGUGAUGGUCGUUGACGGCCAUCCCGAGGAUAUGGGAUUAUCCAGAAGGCGGGAUCGCCGGGAGUGAUGUUCCCUGAUCA [Same State FMN A GF 14]"
  apparent KD of K4 kissing-loop reporter: "151 nM"
- Seq string: "AAUAAUAAUAAAUAUAGAUUGAUGAGCAAACGAGGACCGGUACGGCCGCCACUCGAGUGAUGUUCGAGAAGCUCAUCAAUCAUAA [AK4.6 Exc Tryptophan A]"
  apparent KD of K4 kissing-loop reporter: "372 nM"

Let me know recorded apparent KD of K4 kissing-loop reporter for AUUUAUGUAUCAGGAUAUUAGUGAUGUUUGUUUUUGUUAGUGAUGUUGAUAUUUGUUUUAUGUAUUUAAGAAGGGAUUGAGAUGU [wwewmullin] , thanks. 45.2 nM

Let me know recorded apparent KD of K4 kissing-loop reporter for UGUGGAGAAUAUGAUACCAGCAGAGAGAGAGAGGAAGUAUAGUGAUGUUAUAUGAGAGAAUGCCCUUGGCAGCAUAAGAAGAAGG [SSTheophylB.C] , thanks. 192 nM

Let me know recorded apparent KD of K4 kissing-loop reporter for GGAGGAGAAUAUGAUACCAGCAGAGAGAGAUACGAAGUAUAGUGAUGUUAUAUGAGAGAAUGCCCUUGGCAGCAUAAGACGCAGG [#08 K4 Theophylline B Same State] , thanks. 84.8 nM

Let me know recorded apparent KD of K4 kissing-loop reporter for AGAGUACGAAAGUACUCCUCUACACACUGACGAGGACCGGUACGGCCGCCACUCGAGUUGAGUGAUGUUCGAUAGUGUGUAGAGA [Omei KL Tryp A SS C v3] , thanks. 1120 nM

Let me know recorded apparent KD of K4 kissing-loop reporter for ACGACGCAUAGUGAUACCAGCAUUAUAUGAGUGAUGUUCUACCUAAAAUGGUAAUAAUGAUGCCCUUGGCAGCACUAUGCGUCAG [KL-SSTheoB2] , thanks. 283 nM

====

test system: K4 kissing-loop RNA reporter; experiment: apparent KD of K4 kissing-loop reporter; higher = weaker reporter binding; conditions: Eterna round: R107; input ligand: theophylline 20 uM;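 further: bound reporter read as fluorescence of individual clusters on recovered sequencing chips by microscopy, with normalized cluster intensities fitted with a binding model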
Assay metric: apparent KD of K4 kissing-loop reporter (nM)
Report as a plain number; the unit nM is understood.

Recorded apparent KD of K4 kissing-loop reporter, per entry:
- Seq string: "UUGUUUGGUUGAGAGGUUGGGCGAGAUGAUACCAGUAGAGAAGAGUACCCUUGGCAGCAUAGGAGAGAUAUAGUGAUGUUGUAUA [SSTheophA.R]"
  Study system: "K4 kissing-loop RNA reporter"
  apparent KD of K4 kissing-loop reporter, nM: 525
- Seq string: "GAUAUAUAGACGGCCGCCACUUAUAAAUUUCAGUGAUGUUGAAAUGUUAAAUAACGAACACAAUAGAGGACCGGGUCAAAUAUCG [Same State Tryptophan B GF 2]"
  Study system: "K4 kissing-loop RNA reporter"
  apparent KD of K4 kissing-loop reporter, nM: 187
- Seq string: "AGAACUGUCUUGGAUACCAGUGAUGUUGGUAUCUAUGUGUGAGUGCAAAGCGUCCCACAUUGCCCUUGGCAGCUAAGACUGUUCA [Omei KL Theo B Exc A v2]"
  Study system: "K4 kissing-loop RNA reporter"
  apparent KD of K4 kissing-loop reporter, nM: 216
- Seq string: "GCCGUAGAUUGAAGGAGCGGGCCGUAGUGAUGUUACGCCAAAUUAUCCUUUCUUGAGGUGGUCCAGGUAGGUCGCAAUCUACGGC"
  Study system: "K4 kissing-loop RNA reporter"
  apparent KD of K4 kissing-loop reporter, nM: 109
- Seq string: "GUAGCACAGUCGGCCGCCACUGUCGGUUCUCCAGUGAUGUUGGAGUUAGUUCGUCGCAGUUCAAACAGGACCGGGACCAUUCCUU [theeternabot_exclusion_KL_Trp_B_26]"
  Study system: "K4 kissing-loop RNA reporter"
  apparent KD of K4 kissing-loop reporter, nM: 132

Next sequence, apparent KD of K4 kissing-loop reporter to be filled in.
# return apparent KD of K4 kissing-loop reporter for GGAGUUACCUGGGAUACCAGUCGGAGUCCCAGAGCACAGAGUGAUGUUCUGGGAUGUUUCGGCCCUUGGCAGCUCUGGGACUCCC [#2 Exclusion - Theophylline B Attempt #13 (HarryS)] , test system: K4 kissing-loop RNA reporter 402
